molecule	melting point
CC[C@H](C)[C@H](NC(=O)[C@H](Cc1ccccc1)NC(=O)c1cccc(C(=O)N[C@@H](Cc2ccccc2)C(=O)N[C@H](C(=O)OC)[C@@H](C)CC)n1)C(=O)OC	150 to 152 °C
CC[C@H](C)[C@@H]1NC(=O)[C@H](Cc2ccccc2)NC(=O)c2cccc(n2)C(=O)N[C@@H](Cc2ccccc2)C(=O)N[C@@H]([C@@H](C)CC)C(=O)N[C@H](C(=O)O)CCCCNC1=O	178 to 180 °C
CC[C@H](C)[C@@H]1NC(=O)[C@H](Cc2ccccc2)NC(=O)c2cccc(n2)C(=O)N[C@@H](Cc2ccccc2)C(=O)N[C@@H]([C@@H](C)CC)C(=O)N[C@H](C(=O)NN)CCCCNC1=O	208 to 210 °C
CC[C@H](C)[C@@H]1NC(=O)c2cccc(n2)C(=O)N[C@@H]([C@@H](C)CC)C(=O)N[C@@H]([C@@H](C)CC)C(=O)N[C@H](C(=O)NN)CCCCNC(=O)[C@H]([C@@H](C)CC)NC1=O	180 to 182 °C
CC[C@H](C)[C@@H]1NC(=O)c2cccc(n2)C(=O)N[C@@H]([C@@H](C)CC)C(=O)N[C@@H](Cc2ccccc2)C(=O)N[C@H](C(=O)O)CCCCNC(=O)[C@H](Cc2ccccc2)NC1=O	128 to 130 °C
CC[C@H](C)[C@H](NC(=O)[C@@H](NC(=O)c1cccc(C(=O)N[C@H](C(=O)N[C@H](C(=O)O)[C@@H](C)CC)[C@@H](C)CC)n1)[C@@H](C)CC)C(=O)O [Compound 3a, N^α-Dipicolinoyl-bis[L-ILe-L-ILe]acid]	178 to 180 °C

----------
Each entry below lists one item and its recorded melting point value.
test readout: melting point

molecule	reported value
CC[C@H](C)[C@H](NC(=O)c1cccc(C(=O)N[C@H](C(=O)N[C@@H](Cc2ccccc2)C(=O)OC)[C@@H](C)CC)n1)C(=O)N[C@@H](Cc1ccccc1)C(=O)OC	122 to 124 °C
CC[C@H](C)[C@H](NC(=O)[C@H](Cc1ccccc1)NC(=O)c1cccc(C(=O)N[C@@H](Cc2ccccc2)C(=O)N[C@H](C(=O)O)[C@@H](C)CC)n1)C(=O)O [Compound 3c, N^α-Dipicolinoyl-bis[L-Phe-L-ILe]acid]	202 to 204 °C
CC[C@H](C)[C@H](NC(=O)c1cccc(C(=O)N[C@H](C(=O)N[C@@H](Cc2ccccc2)C(=O)O)[C@@H](C)CC)n1)C(=O)N[C@@H](Cc1ccccc1)C(=O)O [Compound 3b, N^α-Dipicolinoyl-bis[L-ILe-L-Phe]acid]	184 to 186 °C
CC[C@H](C)[C@@H]1NC(=O)c2cccc(n2)C(=O)N[C@@H]([C@@H](C)CC)C(=O)N[C@@H]([C@@H](C)CC)C(=O)N[C@H](C(=O)OC)CCCCNC(=O)[C@H]([C@@H](C)CC)NC1=O	77 to 79 °C
CC[C@H](C)[C@@H]1NC(=O)c2cccc(n2)C(=O)N[C@@H]([C@@H](C)CC)C(=O)N[C@@H](Cc2ccccc2)C(=O)N[C@H](C(=O)NN)CCCCNC(=O)[C@H](Cc2ccccc2)NC1=O	161 to 163 °C
CC[C@H](C)[C@@H]1NC(=O)[C@H](Cc2ccccc2)NC(=O)c2cccc(n2)C(=O)N[C@@H](Cc2ccccc2)C(=O)N[C@@H]([C@@H](C)CC)C(=O)N[C@H](C(=O)OC)CCCCNC1=O	140 to 142 °C
CC[C@H](C)[C@@H]1NC(=O)c2cccc(n2)C(=O)N[C@@H]([C@@H](C)CC)C(=O)N[C@@H]([C@@H](C)CC)C(=O)N[C@H](C(=O)O)CCCCNC(=O)[C@H]([C@@H](C)CC)NC1=O	108 to 110 °C
CC[C@H](C)[C@H](NC(=O)c1cccc(C(=O)N[C@H](C(=O)N[C@H](C(=O)OC)[C@@H](C)CC)[C@@H](C)CC)n1)C(=O)N[C@H](C(=O)OC)[C@@H](C)CC	106 to 108 °C
CC[C@H](C)[C@@H]1NC(=O)c2cccc(n2)C(=O)N[C@@H]([C@@H](C)CC)C(=O)N[C@@H](Cc2ccccc2)C(=O)N[C@H](C(=O)OC)CCCCNC(=O)[C@H](Cc2ccccc2)NC1=O	104 to 106 °C
